Recorded PBM binding z-score by entry
Test system: PPARg DBDmut:RXRa IVT, anti-PPARg (DBD mutation: PPARg1 K132A/R137A, NR concentration 270 nM, RXRa partner concentration 90 nM)
Test: PBM binding z-score (relative to random genomic background probes); higher = stronger binding; sequences stand for … in GC…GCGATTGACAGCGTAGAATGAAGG
Answer with the value's number alone.

Example cases with answers are listed next.
polymer-sequence: ATCTCTAGGTAAGACTCTGTTCAGTGAAGAACGC
observed-value: 0.717
--
polymer-sequence: TCGAGTAGGTTCGTCGGGGCATTCAGCCAACATA
observed-value: -1.34
--
polymer-sequence: GCTTACGGTTCAAAGGTTATAGCATGAATAGAAT
observed-value: 0.711
--
polymer-sequence: ATACCAAGGTGATCGTGAGGTCTTTGATACTAAC
observed-value: 0.449
--
polymer-sequence: CCTTACGGGTCACGAGGTTATATCACGACGAGCG
observed-value: 1.38
--
polymer-sequence: TCTGTTAGTTGATTAGGGCAACCGAAACAGCGGA
observed-value: 1.51
--
polymer-sequence: ATCTTTAGGTAAGACTCAGTTCAGTGAAGAACGC
observed-value: 1.19
--
polymer-sequence: GCTATTATTTGAAAGGGCAACCGAATGATTCTCG
observed-value: 0.791
--
polymer-sequence: CCTAGTTGGTCAGGAGGTCATACACCGGATATGA
observed-value: 0.324
--
polymer-sequence: ATCGAAAGGTCGTGAGGTGAGTATTCAGAAAGGC
observed-value: 0.908

Problem: Name the reported PBM binding z-score value associated with the sequence CCTTACGGGTCACTGACAGGTTATATCATTTGGA
Result: 1.37

Problem: Name the reported PBM binding z-score value associated with the sequence AGTCAAAATTCAGGACGAGGTAACGTAAAGCACG
Result: 0.875

Problem: Name the reported PBM binding z-score value associated with the sequence CCAACTGGGCCAAGGTCATTGATCAGTCAAAGCA
Result: -0.617

Problem: Name the reported PBM binding z-score value associated with the sequence CTTCCAAGGTCAGCAGGTCAGTGAAAGCGACGTG
Result: -0.278

Problem: Name the reported PBM binding z-score value associated with the sequence CCAGACAGGTGAAACGTAACTCAGTCTGGTACGC
Result: -0.823

---

Tested on: FXR:RXRa (NR concentration 270 nM, RXRa partner concentration 90 nM)
Experiment: PBM binding z-score (relative to random genomic background probes); higher = stronger binding; sequences stand for … in GC…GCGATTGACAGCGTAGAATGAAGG
readout-kind: PBM binding z-score
Answer with the value's number alone.

Example cases with answers are listed next.
polymer-sequence: CAAACTAGGTCACAGAGGTCAAAGTACGTGCGTA
target-under-test: FXR:RXRa (NR concentration 270 nM, RXRa partner concentration 90 nM)
readout-kind: PBM binding z-score
observed-value: 7.52
--
polymer-sequence: ATCTCTAGGTAAAAGTTCAATGAATCCCGAGGAT
target-under-test: FXR:RXRa (NR concentration 270 nM, RXRa partner concentration 90 nM)
readout-kind: PBM binding z-score
observed-value: 1.81
--
polymer-sequence: TCGAGTAGGTTAGTCGGGGCTTTCAGCCAACATA
target-under-test: FXR:RXRa (NR concentration 270 nM, RXRa partner concentration 90 nM)
readout-kind: PBM binding z-score
observed-value: -0.154

Problem: Name the reported PBM binding z-score value associated with the sequence ACAGACAGGCGAGTGAAGGTAACTCAGCTGGACG
Result: 0.222

Problem: Name the reported PBM binding z-score value associated with the sequence TCCTGTAGATCAATAGAGGTTAAGAAAGTGCGCT
Result: 0.952

Problem: Name the reported PBM binding z-score value associated with the sequence TCAGACAGGTGAAAGTAACTCAGGTACGCAGTCG
Result: 0.453

Problem: Name the reported PBM binding z-score value associated with the sequence ACTATTAGTTGACTTAGGGCAACCGATACGACGC
Result: 0.119

Problem: Name the reported PBM binding z-score value associated with the sequence ACTTACGGGTCAACGAGGTTATAGCCCGCGTATA
Result: 6.28

Problem: Name the reported PBM binding z-score value associated with the sequence CCTTACGGGTCCCGAGGTTATAGCACGACGAGCG
Result: 0.0402

Problem: Name the reported PBM binding z-score value associated with the sequence GCTCGGAGGACAAGGTCAGATCTTTGTCCGTAGA
Result: 2.14

Problem: Name the reported PBM binding z-score value associated with the sequence GCATATAGGTAATACAAGGTGAATGTCCGATTGT
Result: 1.08

Problem: Name the reported PBM binding z-score value associated with the sequence ATCGAAAGGTCGACGAGGTGGGTATACACCGTTT
Result: 3.58

Problem: Name the reported PBM binding z-score value associated with the sequence ATATGAAGGTTAAGGGTCATTCAGGTTGGTTCGC
Result: 5.91

Problem: Name the reported PBM binding z-score value associated with the sequence ACAGACAGGTGATGAAGGTAACTTAGGCTATCAT
Result: -0.131

Problem: Name the reported PBM binding z-score value associated with the sequence CGTCGAAGGTCAAGGTCAGTGAAAGAGACTCGAA
Result: 7.03

Problem: Name the reported PBM binding z-score value associated with the sequence ATATCTAGGTAAAGATAGTTCAGTGAATGCAAAT
Result: 0.0166

Problem: Name the reported PBM binding z-score value associated with the sequence CGAACTAGGTCATCCCGGACAGTGAATACATTGA
Result: 4.18

Problem: Name the reported PBM binding z-score value associated with the sequence ATACCAAGGTGATCGTGAGGTCGCTGATACTAAC
Result: 1.23

Problem: Name the reported PBM binding z-score value associated with the sequence GTACCAAGGTGAATAGGTCGGTGATGAGTAGGCG
Result: 0.606

Problem: Name the reported PBM binding z-score value associated with the sequence CCTACTGGGCCAAAAAGGTCATTCATGCCGATAA
Result: 3.81

Problem: Name the reported PBM binding z-score value associated with the sequence ATATGTAGGTTTTCGGGTCATTCAGTTTGCGCAT
Result: 3.26

Problem: Name the reported PBM binding z-score value associated with the sequence TCTACTTGGTCAAAGGTCACACACTCGAAATGCG
Result: 6.58

---

System: RXRa DBDmut IVT, anti-RXR (DBD mutation: RXRa K156A/R161A, NR concentration 90 nM)
Experiment: PBM binding z-score (relative to random genomic background probes); higher = stronger binding; sequences stand for … in GC…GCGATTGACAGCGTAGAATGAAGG
Entry flag: Fulfilled if PBM binding z-score reaches 0.07; Not fulfilled if it does not.

polymer-sequence: TTACCAAGGTGACAGGTCGTTGATGCACGCCTTG
target-under-test: RXRa DBDmut IVT, anti-RXR (DBD mutation: RXRa K156A/R161A, NR concentration 90 nM)
label-class: Not fulfilled
--
polymer-sequence: CCTACTGGGCCAAGGTAATTGATCAGTCAAAGCA
target-under-test: RXRa DBDmut IVT, anti-RXR (DBD mutation: RXRa K156A/R161A, NR concentration 90 nM)
label-class: Not fulfilled

Problem: Please tell me: is the sequence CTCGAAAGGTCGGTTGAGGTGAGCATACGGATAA at or over 0.07 in terms of PBM binding z-score?
Result: Fulfilled

Problem: Please tell me: is the sequence CTCGAAAGGTCGGTTGAGGTGTGTATACGGATAA at or over 0.07 in terms of PBM binding z-score?
Result: Fulfilled

Problem: Please tell me: is the sequence ACAGACAGGTGATGAAGGTTACTCAGGCTATCAT at or over 0.07 in terms of PBM binding z-score?
Result: Fulfilled

Problem: Please tell me: is the sequence GCGACTGGGGCCAAGCAGGTTACCATAAGGTTGG at or over 0.07 in terms of PBM binding z-score?
Result: Not fulfilled

Problem: Please tell me: is the sequence CAGCCTAGGTCAGGGCCAGTATAGGAGGAACGTT at or over 0.07 in terms of PBM binding z-score?
Result: Not fulfilled

Problem: Please tell me: is the sequence CCTACTGGGCCAAAAAGGTCGTTGATGCCGATAA at or over 0.07 in terms of PBM binding z-score?
Result: Not fulfilled

Problem: Please tell me: is the sequence ACTAGCAGGGCAAGTTTGGGTCACTCAAACAAAG at or over 0.07 in terms of PBM binding z-score?
Result: Fulfilled

Problem: Please tell me: is the sequence ATCTCTACGTAACAAGTTCAGTGAAAGAGAGGAC at or over 0.07 in terms of PBM binding z-score?
Result: Fulfilled

Problem: Please tell me: is the sequence TCTGCTAGGTCAACGATGGTCAGGTAATCTGCTA at or over 0.07 in terms of PBM binding z-score?
Result: Fulfilled

Problem: Please tell me: is the sequence ATAATGAGGTTACCAAAGATCAGGGAAACGCTTG at or over 0.07 in terms of PBM binding z-score?
Result: Fulfilled
